All figures here come from patent US8658604B2.

Each entry below lists one item and its recorded Hemolysis at 100 μM % value.
- System: human red blood cells (hRBC)
- Assay explanation: Hemolysis
Where a SMILES comes first, the peptide text is derived from it.
A bare number is not enough; add the unit after it.

Compound	Assay system	Hemolysis at 100 μM %
CCCC[C@@H]1NC(=O)[C@@H]2CCCN2C(=O)[C@@H]2CCCN2C(=O)[C@H](CC(=O)O)NC(=O)[C@H](CO)NC(=O)[C@H](CCCCN)NC(=O)[C@H]([C@@H](C)O)NC(=O)[C@@H]2CSSC[C@H](NC1=O)C(=O)N[C@@H](CCCNC(=N)N)C(=O)N1CCC[C@@H]1C(=O)N1CCC[C@H]1C(=O)N[C@@H]([C@@H](C)CC)C(=O)N2 [Ex. 19] (HELM PEPTIDE1{I.C.T.K.S.D.P.P.[Nle].C.R.[dP].P}$PEPTIDE1,PEPTIDE1,2:R3-10:R3|PEPTIDE1,PEPTIDE1,1:R1-13:R2$$$V2.0)	human red blood cells (hRBC)	0%

Lab note: CC[C@H](C)[C@@H]1NC(=O)[C@@H]2CCCN2C(=O)[C@@H]2CCCN2C(=O)[C@H](CC(=O)O)NC(=O)[C@H](CO)NC(=O)[C@H](CCCCN)NC(=O)[C@H]([C@@H](C)O)NC(=O)[C@@H]2CSSC[C@H](NC1=O)C(=O)N[C@@H](CO)C(=O)N1CCC[C@@H]1C(=O)N[C@@H](CC(=O)O)C(=O)N[C@@H](Cc1ccccc1)C(=O)N2 [Ex. 47] (HELM PEPTIDE1{F.C.T.K.S.D.P.P.I.C.S.[dP].D}$PEPTIDE1,PEPTIDE1,2:R3-10:R3|PEPTIDE1,PEPTIDE1,1:R1-13:R2$$$V2.0) gave Hemolysis at 100 μM % of 0%

---

Each entry below lists one item and its recorded Urokinase at 100 μM % value.
- Assay system: Urokinase from human urine (Homo sapiens, UniProt P00749)
- Assay explanation: Enzymatic assay, urokinase
Where a SMILES comes first, the peptide text is derived from it.
Only the number, expressed in %, is required.

Sample answers from the record:
Compound	Urokinase at 100 μM %, %
CC[C@H](C)[C@@H]1NC(=O)[C@@H]2CCCN2C(=O)[C@@H]2CCCN2C(=O)[C@H](CC(=O)O)NC(=O)[C@H](CO)NC(=O)[C@H](CCCCN)NC(=O)[C@H]([C@@H](C)O)NC(=O)[C@H](CCC(=O)O)NC(=O)[C@H](CCCNC(=N)N)NC(=O)[C@@H]2CCCN2C(=O)[C@H]2CCCN2C(=O)[C@H](Cc2ccccc2)NC(=O)[C@H](CCCNC(=N)N)NC1=O [Ex. 7] (HELM PEPTIDE1{R.E.T.K.S.D.P.P.I.R.F.[dP].P}$PEPTIDE1,PEPTIDE1,1:R1-13:R2$$$V2.0)	1.1
CC[C@H](C)[C@@H]1NC(=O)[C@@H]2CCCN2C(=O)[C@@H]2CCCN2C(=O)[C@H](CC(=O)O)NC(=O)[C@H](CO)NC(=O)[C@H](CCCCN)NC(=O)[C@H]([C@@H](C)O)NC(=O)[C@@H]2CSSC[C@H](NC1=O)C(=O)N[C@@H](CO)C(=O)N[C@H](C)C(=O)N1CCC[C@H]1C(=O)N[C@@H](Cc1ccccc1)C(=O)N2 [Ex. 49] (HELM PEPTIDE1{F.C.T.K.S.D.P.P.I.C.S.[dA].P}$PEPTIDE1,PEPTIDE1,2:R3-10:R3|PEPTIDE1,PEPTIDE1,1:R1-13:R2$$$V2.0)	6.2
CC[C@H](C)[C@@H]1NC(=O)[C@@H]2CCCN2C(=O)[C@@H]2CCCN2C(=O)[C@H](CC(=O)O)NC(=O)[C@H](CO)NC(=O)[C@H](CCCCN)NC(=O)[C@H]([C@@H](C)O)NC(=O)[C@@H]2CSSC[C@H](NC1=O)C(=O)N[C@@H](CO)C(=O)N1CCC[C@@H]1C(=O)N[C@@H](CC(=O)O)C(=O)N[C@@H](Cc1ccccc1)C(=O)N2 [Ex. 47] (HELM PEPTIDE1{F.C.T.K.S.D.P.P.I.C.S.[dP].D}$PEPTIDE1,PEPTIDE1,2:R3-10:R3|PEPTIDE1,PEPTIDE1,1:R1-13:R2$$$V2.0)	6.3

Now for a further compound.
Lab note: CCCC[C@@H]1NC(=O)[C@@H]2CCCN2C(=O)[C@H]2CCCN2C(=O)[C@H](Cc2ccc(O)cc2)NC(=O)[C@@H]2CSSC[C@H](NC1=O)C(=O)N[C@@H]([C@@H](C)O)C(=O)N[C@@H](C)C(=O)N[C@@H](CO)C(=O)N[C@@H](C1CCCCC1)C(=O)N1CCC[C@H]1C(=O)N1CCC[C@H]1C(=O)N[C@@H](CCC(N)=O)C(=O)N2 [Ex. 84] (HELM PEPTIDE1{[Nle].C.T.A.S.[O=C([C@@H](N[*:1])C1CCCCC1)[*:2]].P.P.Q.C.Y.[dP].P}$PEPTIDE1,PEPTIDE1,2:R3-10:R3|PEPTIDE1,PEPTIDE1,1:R1-13:R2$$$V2.0) gave Urokinase at 100 μM % of 10.4

---

- Assay system: Chymase, from human skin (Homo sapiens)
- Sequence (P23946 22-247): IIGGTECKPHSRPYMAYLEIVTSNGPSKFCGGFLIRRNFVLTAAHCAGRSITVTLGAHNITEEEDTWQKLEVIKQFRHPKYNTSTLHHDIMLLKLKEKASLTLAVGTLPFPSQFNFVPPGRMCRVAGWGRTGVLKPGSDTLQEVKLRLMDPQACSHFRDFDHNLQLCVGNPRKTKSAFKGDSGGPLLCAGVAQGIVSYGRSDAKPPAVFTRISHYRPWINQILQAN
- Assay explanation: Enzymatic assay, chymase
Where a SMILES comes first, the peptide text is derived from it.
Each entry below lists one item and its recorded Chymase at 100 μM % value.

Compound	Value reported
CCCC[C@@H]1NC(=O)[C@@H]2CCCN2C(=O)[C@@H]2CCCN2C(=O)[C@H](CC(=O)O)NC(=O)[C@H](CO)NC(=O)[C@H](CCCCN)NC(=O)[C@H]([C@@H](C)O)NC(=O)[C@@H]2CSSC[C@H](NC1=O)C(=O)N[C@@H](CCCNC(=N)N)C(=O)N1CCC[C@@H]1C(=O)N1CCC[C@H]1C(=O)N[C@@H]([C@@H](C)CC)C(=O)N2 [Ex. 19] (HELM PEPTIDE1{I.C.T.K.S.D.P.P.[Nle].C.R.[dP].P}$PEPTIDE1,PEPTIDE1,2:R3-10:R3|PEPTIDE1,PEPTIDE1,1:R1-13:R2$$$V2.0)	26.9%

Now for a further compound.
The recorded Chymase at 100 μM % with Chymase, from human skin (Homo sapiens) for CC[C@H](C)[C@@H]1NC(=O)[C@@H]2CCCN2C(=O)[C@@H]2CCCN2C(=O)[C@H](CC(=O)O)NC(=O)[C@H](CO)NC(=O)[C@H](CCCCN)NC(=O)[C@H]([C@@H](C)O)NC(=O)[C@H](CCC(=O)O)NC(=O)[C@H](CCCNC(=N)N)NC(=O)[C@@H]2CCCN2C(=O)[C@H]2CCCN2C(=O)[C@H](Cc2ccccc2)NC(=O)[C@H](CCCNC(=N)N)NC1=O [Ex. 7] (HELM PEPTIDE1{R.E.T.K.S.D.P.P.I.R.F.[dP].P}$PEPTIDE1,PEPTIDE1,1:R1-13:R2$$$V2.0) was 13.4%

---

Each entry below lists one item and its recorded Trypsin at 100 μM % value.
- Assay system: Trypsin, from human pancreas (Homo sapiens, UniProt P07477)
- Assay explanation: Enzymatic assay, trypsin
- Experimental conditions: at 100 μM
Where a SMILES comes first, the peptide text is derived from it.
Only the number, expressed in %, is required.

Compound	Assay metric	Value reported
CC[C@H](C)[C@@H]1NC(=O)[C@@H]2CCCN2C(=O)[C@@H]2CCCN2C(=O)[C@H](CC(=O)O)NC(=O)[C@H](CO)NC(=O)[C@H](CCCCN)NC(=O)[C@H]([C@@H](C)O)NC(=O)[C@H](CCC(=O)O)NC(=O)[C@H](CCCNC(=N)N)NC(=O)[C@@H]2CCCN2C(=O)[C@H]2CCCN2C(=O)[C@H](Cc2ccccc2)NC(=O)[C@H](CCCNC(=N)N)NC1=O [Ex. 7] (HELM PEPTIDE1{R.E.T.K.S.D.P.P.I.R.F.[dP].P}$PEPTIDE1,PEPTIDE1,1:R1-13:R2$$$V2.0)	Trypsin at 100 μM %	41
CC[C@H](C)[C@@H]1NC(=O)[C@@H]2CCCN2C(=O)[C@@H]2CCCN2C(=O)[C@H](CC(=O)O)NC(=O)[C@H](CO)NC(=O)[C@H](CCCCN)NC(=O)[C@H]([C@@H](C)O)NC(=O)[C@@H]2CSSC[C@H](NC1=O)C(=O)N[C@@H](CO)C(=O)N1CCC[C@@H]1C(=O)N1CCC[C@H]1C(=O)N[C@@H](Cc1ccccc1)C(=O)N2 [Ex. 4] (HELM PEPTIDE1{F.C.T.K.S.D.P.P.I.C.S.[dP].P}$PEPTIDE1,PEPTIDE1,2:R3-10:R3|PEPTIDE1,PEPTIDE1,1:R1-13:R2$$$V2.0)	Trypsin at 100 μM %	96
C[C@@H]1NC(=O)[C@H]([C@@H](C)O)NC(=O)[C@@H]2CSSC[C@H](NC(=O)[C@H](CCC(N)=O)NC(=O)[C@@H]3CCCN3C(=O)[C@@H]3CCCN3C(=O)[C@H](CC3CCCCC3)NC(=O)[C@H](CO)NC1=O)C(=O)N[C@@H](CCC(N)=O)C(=O)N1CCC[C@@H]1C(=O)N1CCC[C@H]1C(=O)N[C@@H](CCc1ccccc1)C(=O)N2 [Ex. 158] (HELM PEPTIDE1{[O=C([C@H](CCc1ccccc1)N[*:1])[*:2]].C.T.A.S.[Cha].P.P.Q.C.Q.[dP].P}$PEPTIDE1,PEPTIDE1,2:R3-10:R3|PEPTIDE1,PEPTIDE1,1:R1-13:R2$$$V2.0)	Trypsin at 100 μM %	8

The recorded Trypsin at 100 μM % with Trypsin, from human pancreas (Homo sapiens, UniProt P07477) for CCCC[C@@H]1NC(=O)[C@@H]2CCCN2C(=O)[C@H]2CCCN2C(=O)[C@H](Cc2ccc(O)cc2)NC(=O)[C@@H]2CSSC[C@H](NC1=O)C(=O)N[C@@H](C)C(=O)N[C@@H](C)C(=O)N[C@@H](CO)C(=O)N[C@@H]([C@@H](C)CC)C(=O)N1CCC[C@H]1C(=O)N1CCC[C@H]1C(=O)N[C@@H](CCC(N)=O)C(=O)N2 [Ex. 86] (HELM PEPTIDE1{[Nle].C.A.A.S.I.P.P.Q.C.Y.[dP].P}$PEPTIDE1,PEPTIDE1,2:R3-10:R3|PEPTIDE1,PEPTIDE1,1:R1-13:R2$$$V2.0) was 0
